- Test: self-splicing fitness, log relative to wild type (ln ratio); higher = more splicing; Tetrahymena group I intron in knt gene, E. coli kanamycin selection, DiMSum; sequences stand for … in CUCUCU…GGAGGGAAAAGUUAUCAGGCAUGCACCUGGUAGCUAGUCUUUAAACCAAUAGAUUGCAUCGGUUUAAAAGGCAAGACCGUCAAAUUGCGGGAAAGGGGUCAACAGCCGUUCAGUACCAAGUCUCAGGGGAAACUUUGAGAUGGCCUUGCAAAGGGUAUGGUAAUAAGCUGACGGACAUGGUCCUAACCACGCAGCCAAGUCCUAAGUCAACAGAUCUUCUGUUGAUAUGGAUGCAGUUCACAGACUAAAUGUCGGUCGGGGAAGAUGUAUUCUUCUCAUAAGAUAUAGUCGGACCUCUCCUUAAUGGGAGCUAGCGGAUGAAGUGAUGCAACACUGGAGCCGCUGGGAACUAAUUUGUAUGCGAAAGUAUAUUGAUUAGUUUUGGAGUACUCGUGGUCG;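 note: selection with 25 µg/mL kanamycin versus none on LB agar overnight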
- Condition parameters: 37 °C
Observation type: self-splicing fitness (ln)
Field format: numeric only.

# count of solved cases: 3
{"columns": ["Biopolymer sequence", "self-splicing fitness (ln)"],
 "data": [
  ["UGAAAGCAAUAUUACGAUAG", -0.612],
  ["AUUGAGCAAUAUUACGCGGA", -2.2],
  ["AACUAGCAAUAUUACGUAGG", -1.29]
]}

Notebook: AACCAGCAAUAUUACGUUGA , self-splicing fitness (ln) read as -0.421

====

- Test: self-splicing fitness, log relative to wild type (ln ratio); higher = more splicing; Tetrahymena group I intron in knt gene, E. coli kanamycin selection, DiMSum; sequences stand for … in CUCUCU…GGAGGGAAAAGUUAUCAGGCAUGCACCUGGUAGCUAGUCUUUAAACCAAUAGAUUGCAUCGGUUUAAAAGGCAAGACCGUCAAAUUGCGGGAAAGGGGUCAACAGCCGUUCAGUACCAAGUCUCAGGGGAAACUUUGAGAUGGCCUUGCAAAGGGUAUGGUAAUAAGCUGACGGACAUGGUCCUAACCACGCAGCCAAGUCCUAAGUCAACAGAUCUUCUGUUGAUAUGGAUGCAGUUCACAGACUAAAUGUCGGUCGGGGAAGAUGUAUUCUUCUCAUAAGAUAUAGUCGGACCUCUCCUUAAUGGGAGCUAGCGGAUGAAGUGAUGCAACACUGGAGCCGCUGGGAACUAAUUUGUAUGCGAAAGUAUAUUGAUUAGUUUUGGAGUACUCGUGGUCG
- Condition parameters: 37 °C
Observation type: self-splicing fitness (ln)
Field format: numeric only.

{"columns": ["Biopolymer sequence", "Value observed"],
 "data": [
  ["UGCAAGCAAUAUUACGCAUA", -2.33],
  ["UACGAGCAAUAUUACGACUC", -2.31],
  ["CUCCAGCAAUAUUACGUUCA", -2.85],
  ["GAAUAGCAAUAUUACGCCGC", -1.45],
  ["GCGCAGCAAUAUUACGCAAC", -0.576]
]}

Notebook: GAAUAGCAAUAUUACGUCAC , self-splicing fitness (ln) read as -1.31

Notebook: ACGUAGCAAUAUUACGGAUC , self-splicing fitness (ln) read as -0.313

====

self-splicing fitness (ln) values by entry
- Test: self-splicing fitness, log relative to wild type (ln ratio); higher = more splicing; Tetrahymena group I intron in knt gene, E. coli kanamycin selection, DiMSum; sequences stand for … in CUCUCU…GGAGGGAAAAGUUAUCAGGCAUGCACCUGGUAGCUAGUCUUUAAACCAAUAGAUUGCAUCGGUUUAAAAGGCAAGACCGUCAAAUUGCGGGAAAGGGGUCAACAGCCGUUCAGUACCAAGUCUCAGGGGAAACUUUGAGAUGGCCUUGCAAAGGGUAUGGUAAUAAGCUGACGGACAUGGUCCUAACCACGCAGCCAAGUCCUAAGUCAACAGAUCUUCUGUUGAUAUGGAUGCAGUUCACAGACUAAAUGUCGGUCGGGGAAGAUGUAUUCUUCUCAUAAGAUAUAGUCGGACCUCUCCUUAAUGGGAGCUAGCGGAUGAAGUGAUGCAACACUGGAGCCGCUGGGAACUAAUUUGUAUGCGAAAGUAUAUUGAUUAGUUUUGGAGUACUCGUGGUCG
- Condition parameters: 30 °C
Field format: numeric only.

# count of solved cases: 5
{"columns": ["Biopolymer sequence", "Value observed"],
 "data": [
  ["GUUCAGCAAUAUUACGGCCG", -2.57],
  ["UGGUAGCAAUAUUACGACCU", -0.697],
  ["AAGUAGCAAUAUUACGUCAC", -3.26],
  ["GCUGAGCAAUAUUACGACGG", -1.27],
  ["UGACAGCAAUAUUACGACUG", -0.341]
]}

Notebook: CAAAAGCAAUAUUACGUCGG , self-splicing fitness (ln) read as -0.932

Notebook: UCAGAGCAAUAUUACGAUUG , self-splicing fitness (ln) read as -4

Notebook: CGUUAGCAAUAUUACGUAUU , self-splicing fitness (ln) read as -3.02

Notebook: CCCCAGCAAUAUUACGGAAG , self-splicing fitness (ln) read as -2.27

Notebook: AAGAAGCAAUAUUACGUAUG , self-splicing fitness (ln) read as -1.93

Notebook: AAACAGCAAUAUUACGCUAU , self-splicing fitness (ln) read as -1.87

====

- Test: self-splicing fitness, log relative to wild type (ln ratio); higher = more splicing; Tetrahymena group I intron in knt gene, E. coli kanamycin selection, DiMSum; sequences stand for … in CUCUCU…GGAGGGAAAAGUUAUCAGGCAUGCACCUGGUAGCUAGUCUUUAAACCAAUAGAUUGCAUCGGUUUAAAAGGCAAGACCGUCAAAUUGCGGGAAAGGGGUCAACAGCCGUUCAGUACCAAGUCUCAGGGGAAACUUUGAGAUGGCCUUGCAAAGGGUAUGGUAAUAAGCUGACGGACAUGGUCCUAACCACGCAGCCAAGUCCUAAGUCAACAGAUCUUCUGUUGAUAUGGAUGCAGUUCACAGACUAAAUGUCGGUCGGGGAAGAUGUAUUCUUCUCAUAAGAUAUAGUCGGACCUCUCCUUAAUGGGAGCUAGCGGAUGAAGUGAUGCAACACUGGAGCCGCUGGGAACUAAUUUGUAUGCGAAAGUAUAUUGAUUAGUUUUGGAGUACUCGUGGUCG
- Condition parameters: 30 °C
Observation type: self-splicing fitness (ln)
Field format: numeric only.

{"columns": ["Biopolymer sequence", "Value observed"],
 "data": [
  ["AGUUAGCAAUAUUACGUCGU", -2.35],
  ["AAGCAGCAAUAUUACGUCGC", -2.95],
  ["UACAAGCAAUAUUACGCAUU", -3.38],
  ["AGUAAGCAAUAUUACGAUAC", -3.12],
  ["UACAAGCAAUAUUACGAUGC", -3.69],
  ["CUUUAGCAAUAUUACGGACU", -4.41]
]}

Notebook: AUUUAGCAAUAUUACGGUGU , self-splicing fitness (ln) read as -2.3

Notebook: CUGGAGCAAUAUUACGUUCU , self-splicing fitness (ln) read as -2.43

====

- Test: self-splicing fitness, log relative to wild type (ln ratio); higher = more splicing; Tetrahymena group I intron in knt gene, E. coli kanamycin selection, DiMSum; sequences stand for … in CUCUCU…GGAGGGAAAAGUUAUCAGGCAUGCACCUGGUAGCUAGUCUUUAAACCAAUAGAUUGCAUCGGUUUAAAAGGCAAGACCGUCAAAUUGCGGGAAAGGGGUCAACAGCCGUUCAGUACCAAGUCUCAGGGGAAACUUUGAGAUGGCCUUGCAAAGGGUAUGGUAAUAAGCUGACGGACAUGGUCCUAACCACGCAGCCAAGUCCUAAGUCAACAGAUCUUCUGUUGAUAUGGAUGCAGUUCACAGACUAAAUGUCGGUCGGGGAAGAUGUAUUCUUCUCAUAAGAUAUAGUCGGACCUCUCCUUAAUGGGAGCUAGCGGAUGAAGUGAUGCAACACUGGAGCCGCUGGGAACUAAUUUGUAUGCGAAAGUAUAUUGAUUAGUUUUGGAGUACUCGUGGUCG
- Condition parameters: 30 °C
Observation type: self-splicing fitness (ln)
Field format: numeric only.

# count of solved cases: 6
{"columns": ["Biopolymer sequence", "self-splicing fitness (ln)"],
 "data": [
  ["ACCAAGCAAUAUUACGGGUG", -1.05],
  ["GGAGAGCAAUAUUACGCAUC", -3.08],
  ["AACCAGCAAUAUUACGUACG", -1.42],
  ["UGGAAGCAAUAUUACGAUCC", -2.44],
  ["AGGAAGCAAUAUUACGGGGA", -2.97],
  ["CCAGAGCAAUAUUACGGGUC", -3.22]
]}

Notebook: GACAAGCAAUAUUACGCUUA , self-splicing fitness (ln) read as -1.52

Notebook: AUAUAGCAAUAUUACGCUCC , self-splicing fitness (ln) read as -0.958

Notebook: UAUGAGCAAUAUUACGGAUU , self-splicing fitness (ln) read as -2.96

Notebook: ACGGAGCAAUAUUACGUUCU , self-splicing fitness (ln) read as -3.16

Notebook: GUUGAGCAAUAUUACGACUU , self-splicing fitness (ln) read as -2.53

Notebook: CGGAAGCAAUAUUACGGUAG , self-splicing fitness (ln) read as -0.312

Notebook: GCACAGCAAUAUUACGGGGU , self-splicing fitness (ln) read as -2.83

Notebook: GAGAAGCAAUAUUACGGUCG , self-splicing fitness (ln) read as -0.943

Notebook: GAAGAGCAAUAUUACGAAGG , self-splicing fitness (ln) read as -2.75

Notebook: UGGUAGCAAUAUUACGUACC , self-splicing fitness (ln) read as -2.93

Notebook: UACUAGCAAUAUUACGUAGC , self-splicing fitness (ln) read as -2.83

Notebook: CUAAAGCAAUAUUACGGGGC , self-splicing fitness (ln) read as -2.86

Notebook: GUUUAGCAAUAUUACGGUUA , self-splicing fitness (ln) read as -1.68

Notebook: GCUCAGCAAUAUUACGAACG , self-splicing fitness (ln) read as -0.679

Notebook: CUAUAGCAAUAUUACGGCUC , self-splicing fitness (ln) read as -3.46

Notebook: ACUCAGCAAUAUUACGGGCA , self-splicing fitness (ln) read as -0.259

Notebook: AAUAAGCAAUAUUACGUGAG , self-splicing fitness (ln) read as -0.815

Notebook: UAAGAGCAAUAUUACGGCUU , self-splicing fitness (ln) read as -2.3

The values you see were collected from the supplement of paper PMC7877785.
